# Test system: Poliovirus 3
# assay-info: Antiviral activity against Poliovirus 3 infected in human HeLa-RW cells assessed as protection against virus-induced cytopathic effect after 3 to 4 days by crystal violet staining-based spectrophotometric method
# Type: functional, cell-based
# run-parameters: Enterovirus C
Let's look at some compounds and their measured EC50.

// worked examples, EC50 included
compound-structure-string: CC(C)n1ncc2c(C(=O)Nc3ccccn3)cc(-c3cccs3)nc21
EC50: > 10 µM
//
compound-structure-string: CC(C)n1ncc2c(C(=O)Nc3ccc(F)cc3)cc(-c3ccsc3)nc21
EC50: > 25 µM

Now let's try a different one.
Tell me the measured EC50 of CC(C)n1ncc2c(C(=O)Nc3ccncn3)cc(-c3cccs3)nc21 , please. > 10 µM

----------
# Tested on: Poliovirus 3
# assay-info: Antiviral activity against Poliovirus 3 infected in human HeLa-RW cells assessed as protection against virus-induced cytopathic effect after 3 to 4 days by crystal violet staining-based spectrophotometric method
# Format: functional, cell-based
# run-parameters: Enterovirus C
endpoint-label: EC50

Give Poliovirus 3 EC50 for CC(C)n1ncc2c(C(=O)Nc3ccc(F)c(F)c3)cc(-c3cccs3)nc21 > 10 µM

Write down the reported EC50 of CC(C)n1ncc2c(C(=O)Nc3cccc(F)c3F)cc(-c3cccs3)nc21 , test system: Poliovirus 3. > 25 µM

Lookup: EC50 / Poliovirus 3 / CC(C)n1ncc2c(C(=O)Nc3ccccc3F)cc(-c3ccncc3)nc21 > 25 µM

Requested read-out EC50, target or system Poliovirus 3, entry CC(C)n1ccc2c(C(=O)Nc3ccc(F)cc3)cc(-c3cccs3)nc21 > 25 µM

Write down the reported EC50 of CC(C)n1ncc2c(C(=O)Nc3cccc(S(=O)(=O)N(C)C)c3)cc(-c3cccs3)nc21 , test system: Poliovirus 3. > 10 µM

API: value(readout=EC50, system=Poliovirus 3) for record CC(C)n1ncc2c(C(=O)Nc3cc(C(N)=O)ccc3F)cc(-c3cccs3)nc21 5 µM

----------
Documented EC50 across a set of molecules
# Tested on: Poliovirus 1
# assay-info: Antiviral activity against Poliovirus 1 infected in human HeLa-RW cells assessed as protection against virus-induced cytopathic effect after 3 to 4 days by crystal violet staining-based spectrophotometric method
# Assay type: functional, cell-based
# run-parameters: Enterovirus C

compound-structure-string: CC(C)n1ncc2c(C(=O)Nc3ccc(F)c(F)c3)cc(-c3cccs3)nc21
EC50: > 10 µM

compound-structure-string: CC(C)n1ccc2c(C(=O)Nc3ccncc3)cc(-c3cccs3)nc21
EC50: > 10 µM

compound-structure-string: CC(C)n1ncc2c(C(=O)Nc3ccc(S(C)(=O)=O)cc3)cc(-c3cccs3)nc21
EC50: > 10 µM

compound-structure-string: CC(C)n1ncc2c(C(=O)Nc3ccncn3)cc(-c3cccs3)nc21
EC50: > 10 µM

Bench note: what EC50 did CC(C)n1ncc2c(C(=S)Nc3ccc(F)cc3)cc(-c3cccs3)nc21 show? > 10 µM

# query: EC50 of entry CC(C)n1ncc2c(C(=O)Nc3ccc(F)cc3)cc(-c3cccs3)nc21 > 25 µM

----------
# assay-info: Selectivity index, ratio of CC50 for monkey LLC-MK2 cells to EC50 for Enterovirus A71
# Type: toxicity
# run-parameters: read-out: Ratio CC50/EC50
Property: selectivity ratio; scope: individual molecules

Solved entries (count: 3):
compound-structure-string: CC(C)n1ncc2c(C(=O)Nc3cccc(F)c3)cc(-c3cccs3)nc21
assay-result: > 83.3
//
compound-structure-string: CC(C)n1ncc2c(C(=O)Nc3c(F)cc(F)cc3F)cc(-c3cccs3)nc21
assay-result: > 66.7
//
compound-structure-string: CC(C)n1ncc2c(C(=O)Nc3cccc(S(=O)(=O)N(C)C)c3)cc(-c3cccs3)nc21
assay-result: > 250

For the molecule CC(C)n1ncc2c(C(=O)N3CCc4cc(F)ccc43)cc(-c3cccs3)nc21 , what selectivity ratio is on record? > 153

Given the entry CC(C)n1ncc2c(C(=O)Nc3ccc(F)cc3)cc(-c3cccs3)nc21 , report its measured selectivity ratio. > 222

Request the reported selectivity ratio associated with CC(C)n1ncc2c(C(=O)Nc3ccc(F)cc3)cc(-c3ccco3)nc21 > 76.9

I have this molecule here, CC(C)n1ncc2c(C(=O)Nc3c(F)cccc3F)cc(-c3cccs3)nc21 , and I need its recorded selectivity ratio. > 58.8

Which selectivity ratio value is on record for CC(C)n1ncc2c(C(=O)Nc3ccccn3)cc(-c3cccs3)nc21 ? > 400

// returns reported selectivity ratio for input CC(C)n1ncc2c(C(=O)Nc3ccc(F)cn3)cc(-c3cccs3)nc21 > 167

Please look up its selectivity ratio: CC(C)n1ncc2c(C(=O)Nc3ccc(F)cc3F)cc(-c3cccs3)nc21 > 125

Query (molecule): CC(C)n1ncc2c(C(=O)Nc3ccccc3F)cc(-c3ccccc3)nc21 ; field requested: selectivity ratio > 35.1

Returns the measured selectivity ratio for the input molecule. Input: CC(C)n1ncc2c(C(=O)Nc3cccnc3)cc(-c3cccs3)nc21 > 400

Using the record for CC(C)n1ncc2c(C(=O)Nc3ccc(F)cc3)cc(-c3ccsc3)nc21 , report its selectivity ratio. > 143

The reported numbers originate from ChEMBL document CHEMBL4024801.
